Origin of measurements: patent US8921364B2

Biological target: CRAC channels (Homo sapiens (Human), UniProt Q96D31)
Sequence (Q96D31 whole entry): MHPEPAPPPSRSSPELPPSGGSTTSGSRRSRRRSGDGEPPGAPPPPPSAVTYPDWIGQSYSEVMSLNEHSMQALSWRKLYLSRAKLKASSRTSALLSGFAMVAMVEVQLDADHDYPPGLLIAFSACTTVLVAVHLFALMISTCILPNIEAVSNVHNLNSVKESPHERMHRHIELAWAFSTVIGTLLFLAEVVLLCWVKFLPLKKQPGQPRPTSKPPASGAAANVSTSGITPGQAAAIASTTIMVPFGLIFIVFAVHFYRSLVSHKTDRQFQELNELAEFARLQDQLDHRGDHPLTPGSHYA
Experiment: In-vitro CRAC channel inhibition assay in Jurkat cells (thapsigargin-induced calcium influx)
Assay type: cell-based
Conditions: Jurkat cells, thapsigargin-induced calcium influx
Structures can show the parent of a compound that is named as a salt.
OBSERVABLE: IC50 (nM)
Report only the number, with the unit nM understood.

>>> print(df.to_string())
                                   compound  recorded_number
0  Cc1ncsc1CNc1ccc(-n2nc(C(F)(F)F)cc2C2CC2)cc1               48
1  O=C(Nc1ccc(-n2nc(C3CC3)cc2C2CC2)c(F)c1)c1c(F)cccc1F              145
2  Cc1ncncc1NC(=O)Nc1ccc(-n2nc(C(F)(F)F)cc2C2CC2)c(F)c1              600
3  O=C(Nc1ccc(-n2nc(C(F)(F)F)cc2C2CC2)nc1)c1c(F)cccc1F             50.6
4  O=C(Nc1c(F)cccc1F)c1ccc(-n2nc(C(F)(F)F)cc2C2CC2)c(F)c1             99.7
5  Cc1ncsc1C(=O)Nc1ccc(-n2nc(C(F)(F)F)cc2C(F)F)cc1             52.6
6  Cc1ncncc1C(=O)Nc1ccc(-n2nc(C3CC3)cc2C2CC2)c(F)c1              224
7  O=C(Nc1c(F)cccc1F)c1ccc(-n2nc(C(F)(F)F)cc2C2CC2)cc1              124
8  Cc1noc(C)c1C(=O)Nc1ccc(-n2nc(C(F)(F)F)cc2C2CC2)cc1              124
9  Cc1ncsc1C(=O)Nc1ccc(-n2nc(C(F)(F)F)cc2C2CC2)c(F)c1             48.2

Recorded IC50 for "O=C(Nc1ccc(-n2nc(C(F)(F)F)cc2C2CC2)c(F)c1)c1cccc(F)c1F" with CRAC channels (Homo sapiens (Human), UniProt Q96D31), please?
32.6

What would you report for "Cc1nnsc1C(=O)Nc1ccc(-n2nc(C3CC3)c(Cl)c2C2CC2)c(F)c1" ?
181

What would you report for "O=C(Nc1cnc(-n2nc(C(F)(F)F)cc2C2CC2)nc1)c1c(F)cccc1F" ?
295

What would you report for "Cc1ccccc1C(=O)Nc1ccc(-n2nc(C(F)(F)F)cc2C2CC2)nc1" ?
23

What would you report for "Cc1ccccc1C(=O)Nc1ccc(-n2nc(C3CC3)cc2C2CC2)cc1" ?
36.4

What would you report for O=C(Cc1ccccn1)Nc1ccc(-n2nc(C3CC3)cc2C2CC2)cc1 [Example 22, hydrochloride] ?
968

What would you report for "Cc1ncsc1C(=O)Nc1ccc(-n2nc(C(F)(F)F)cc2CF)cc1" ?
373

What would you report for "Cc1oncc1C(=O)Nc1ccc(-n2nc(C(F)(F)F)cc2C2CC2)c(F)c1" ?
20.8

What would you report for "Cc1nnsc1C(=O)Nc1ccc(-n2nc(C(F)(F)F)cc2C2CC2)nc1" ?
150

###

Target: CRAC channels (Homo sapiens (Human))
Assay: In-vitro CRAC channel inhibition assay in Jurkat cells (thapsigargin-induced calcium influx)
Assay type: cell-based
Details: Jurkat cells, thapsigargin-induced calcium influx
Structures can show the parent of a compound that is named as a salt.
OBSERVABLE: pIC50
Lab note — pIC50 values are minus log10 of concentrations in M.

                                   molecule  observable  recorded_number
0  Cc1nnsc1C(=O)Nc1ccc(-n2nc(C3CC3)cc2C2CC2)c(F)c1       pIC50             7.22
1  O=C(Nc1ccc(-n2nc(C3CC3)cc2C2CC2)nc1)c1c(F)cccc1F [Example 45, hydrochloride]       pIC50             6.36
2  O=C(Nc1ccc(-n2nc(C(F)(F)F)cc2C2CC2)nc1)c1ccncc1 [Example 113, hydrochloride]       pIC50             7.20

Next item in the queue.
Recorded pIC50 for "Cc1nnsc1C(=O)Nc1ccc(-n2nc(C(F)(F)F)cc2C2CC2)cc1" with CRAC channels (Homo sapiens (Human)), please?
6.74

###

Target: CRAC channels (Homo sapiens (Human))
Assay: In-vitro CRAC channel inhibition assay in Jurkat cells (thapsigargin-induced calcium influx)
Format: cell-based
Conditions: Jurkat cells, thapsigargin-induced calcium influx
Procedure: Inhibition of CRAC channels was determined following thapsigargin (Sigma, Cat # T9033) induced endoplasmic calcium release in Jurkat cells. […] Fluorescence was monitored over […] on a plate reader (BMG Labtech., Germany) with excitation at 485 nm and an emission wavelength at 520 nm. Data were analyzed using GraphPad Prism. IC50 for each compound was determined based on the percent inhibition of thapsigargin-induced calcium influx into cells.
Where a name gives a salt, the structure may show the parent alone.
OBSERVABLE: pIC50
Lab note — pIC50 values are minus log10 of concentrations in M.

Study these solved cases before continuing.
>>> print(df.to_string())
                                   molecule                    measurement_target  observable  recorded_number
0  O=C(Nc1ccc(-n2nc(C(F)(F)F)cc2C2CC2)nc1)c1cccnc1 [Example 111, hydrochloride]  CRAC channels (Homo sapiens (Human))       pIC50             7.33
1  Cc1ncsc1C(=O)Nc1ccc(-n2nc(C(F)(F)F)c(Cl)c2C2CC2)cc1 [Example 80]  CRAC channels (Homo sapiens (Human))       pIC50             6.71
2  O=C(Cc1ccccc1)Nc1ccc(-n2nc(C3CC3)cc2C2CC2)cc1 [Example 19]  CRAC channels (Homo sapiens (Human))       pIC50             6.34
3  O=C(Nc1ccc(-n2nc(C3CC3)cc2C2CC2)c(F)c1)c1ccncc1 [Example 35, hydrochloride]  CRAC channels (Homo sapiens (Human))       pIC50             6.73
4  Cc1oncc1C(=O)Nc1ccc(-n2nc(C(F)(F)F)cc2C2CC2)cc1 [Example 56]  CRAC channels (Homo sapiens (Human))       pIC50             7.20
5  Cc1ncsc1C(=O)Nc1ccc(-n2nc(C3CC3)cc2C2CC2)nc1 [Example 39, hydrochloride]  CRAC channels (Homo sapiens (Human))       pIC50             6.07

# pIC50 lookup, item Cc1ncsc1C(=O)Nc1ccc(-n2nc(C(F)(F)F)cc2C2CC2)cc1 [Example 53]
7.14
